Test system: A2780;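 note: growth inhibition of A2780 cells, read out with a cell viability assay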
Assay: cells
Type: functional, cell-based, Homo sapiens
Conditions: a2780
Description: SANGER: Inhibition of human A2780 cell growth in a cell viability assay.
READOUT: IC50

Recorded IC50 of BLEOMYCIN , please. 220 nM

----------
System: LN-405
Experiment: cells
Format: functional, cell-based, Homo sapiens
Settings: ln-405
Description: SANGER: Inhibition of human LN-405 cell growth in a cell viability assay.
Can you tell me IC50 for the items I'm about to list?
One number for each entry, in µM.

{"columns": ["SEQ TEXT", "UNIT NAME", "IC50"],
 "data": [
  ["CISPLATIN", "µM", 15.5]
]}

Please find the next sequence below.
// map BLEOMYCIN to recorded IC50 (system: LN-405) 402

----------
Test system: AGS;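 note: growth inhibition of AGS cells, determined with a cell viability assay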
Assay: cells
Assay type: functional, cell-based, Homo sapiens
Conditions: ags
Description: SANGER: Inhibition of human AGS cell growth in a cell viability assay.
READOUT: pIC50
Give bare numbers, as −log10 of the molar value.

Recorded pIC50 of BLEOMYCIN , please. 6.30

----------
Tested on: EW-7
Assay: SANGER: Inhibition of human EW-7 cell growth in a cell viability assay.
Type: functional, cell-based
Conditions: Homo sapiens, EW-7
Counter-ions that a name gives are not always drawn.
READOUT: IC50

Recorded IC50 of COC1=CC(c2cc3ccccc3[nH]2)=N/C1=C\c1[nH]c(C)cc1C [OBATOCLAX MESYLATE] , please. < 62.5 nM

----------
System: TE-11;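 note: growth inhibition of human TE-11 cells, read out by a cell viability assay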
Test: cells
Format: functional, cell-based, Homo sapiens
Conditions: Homo sapiens, TE-11
Description: SANGER: Inhibition of human TE-11 cell growth in a cell viability assay.
READOUT: IC50

Below are worked cases with known answers.
{"columns": ["COMPOUND", "TARGET OR TEST SYSTEM", "IC50"],
 "data": [
  ["Cc1ccc(-c2c(C(=O)CCl)n(CCCO)c3ncnc(N)c23)cc1", "TE-11", "> 4 µM"],
  ["CC(C)CCN1c2nc(Nc3cc(F)c(O)c(F)c3)ncc2N(C)C(=O)C1C (stereo not drawn)", "TE-11", "> 5 µM"]
]}

Please find the next compound below.
Recorded IC50 of CCC/C=C/C=C/C(=O)O[C@H]1/C(=C/C(=O)OC)C[C@H]2C[C@H]([C@@H](C)O)OC(=O)C[C@H](O)C[C@@H]3C[C@H](OC(C)=O)C(C)(C)[C@](O)(C[C@@H]4C/C(=C/C(=O)OC)C[C@H](/C=C/C(C)(C)[C@]1(O)O2)O4)O3 , please. > 0.008 µM

----------
Test system: NCI-H28;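 note: growth inhibition of human NCI-H28 cells, read out as cell viability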
Test: cells
Assay type: functional, cell-based, Homo sapiens
Details: Homo sapiens, NCI-H28
Description: SANGER: Inhibition of human NCI-H28 cell growth in a cell viability assay.
Can you tell me IC50 for the items I'm about to list?
Give bare numbers, in µM.

{"columns": ["ENTRY SMILES", "IC50 / µM"],
 "data": [
  ["CN(C)C(=N)NC(=N)N", 12000],
  ["Cc1cc([N+](=O)[O-])ccc1NS(=O)(=O)c1cc(Cl)ccc1Cl", 8.5]
]}

Please find the next molecule below.
Recorded IC50 of CC(C)c1ccccc1Cc1cc(C(=O)Nc2ccc(S(=O)(=O)c3ccccc3C(C)(C)C)cc2)c(O)c(O)c1O , please. 0.447

----------
Test system: BFTC-905
Experiment: cells
Format: functional, cell-based, Homo sapiens
Settings: Homo sapiens, BFTC-905
Description: SANGER: Inhibition of human BFTC-905 cell growth in a cell viability assay.
Can you tell me IC50 for the items I'm about to list?
Give bare numbers, in nM.

{"columns": ["ENTRY SMILES", "UNIT NAME", "MEASURED RESULT"],
 "data": [
  ["COc1cccc2c1C(=O)c1c(O)c3c(c(O)c1C2=O)C[C@@](O)(C(=O)CO)C[C@@H]3O[C@H]1C[C@H](N)[C@H](O)[C@H](C)O1", "nM", 16.2]
]}

Please find the next molecule below.
// map O=C(O)c1ccc(-c2c[nH]c3ncc(-c4ccccc4)cc23)cc1C1CCCC1 to recorded IC50 (system: BFTC-905) 785

Every entry's value here was drawn from ChEMBL document CHEMBL1201861.
